EXPERIMENT SUMMARY: Plasma concentration of LY-354740 in rats after oral administration of compound at a dose of 5 mg equiv 1/kg at 0.5 hr
Format: ADME
CONDITION: rat
EXPERIMENTAL READOUT: Plasma concentration (ng/mL)
Dear colleague, please return just the value in ng/mL, with no unit written.

The cases that follow already have their Plasma concentration on record.
| COMPOUND | UNITS | Plasma concentration |
| --- | --- | --- |
| C[C@H](N)C(=O)N[C@@H](C)C(=O)N[C@@]1(C(=O)O)CC[C@H]2[C@H](C(=O)O)[C@H]21.Cl | ng/mL | 3620 |
| CC(C)[C@H](NC(=O)[C@]1(N)CC[C@H]2[C@H](C(=O)O)[C@H]21)C(=O)O | ng/mL | 10 |
| CC(C)C[C@@H](N)C(=O)N[C@@]1(C(=O)O)CC[C@H]2[C@H](C(=O)O)[C@H]21.Cl | ng/mL | 1478 |
| CSCC[C@H](N)C(=O)N[C@@]1(C(=O)O)CC[C@H]2[C@H](C(=O)O)[C@H]21.Cl | ng/mL | 3720 |
| C[C@@H](N)C(=O)N[C@@]1(C(=O)O)CC[C@H]2[C@H](C(=O)O)[C@H]21.Cl | ng/mL | 81 |
| C[C@H](N)C(=O)N[C@@]1(C(=O)O)CC[C@H]2[C@H](C(=O)O)[C@H]21.Cl [TALAGLUMETAD HYDROCHLORIDE] | ng/mL | 3732 |

Read the next record carefully.
Can you share its Plasma concentration? I mean this compound: `CC(C)C[C@H](NC(=O)[C@]1(N)CC[C@H]2[C@H](C(=O)O)[C@H]21)C(=O)O`
450

###

EXPERIMENTAL TARGET: Metabotropic glutamate receptor 2 (Rattus norvegicus, UniProt P31421)
Sequence (P31421 whole entry): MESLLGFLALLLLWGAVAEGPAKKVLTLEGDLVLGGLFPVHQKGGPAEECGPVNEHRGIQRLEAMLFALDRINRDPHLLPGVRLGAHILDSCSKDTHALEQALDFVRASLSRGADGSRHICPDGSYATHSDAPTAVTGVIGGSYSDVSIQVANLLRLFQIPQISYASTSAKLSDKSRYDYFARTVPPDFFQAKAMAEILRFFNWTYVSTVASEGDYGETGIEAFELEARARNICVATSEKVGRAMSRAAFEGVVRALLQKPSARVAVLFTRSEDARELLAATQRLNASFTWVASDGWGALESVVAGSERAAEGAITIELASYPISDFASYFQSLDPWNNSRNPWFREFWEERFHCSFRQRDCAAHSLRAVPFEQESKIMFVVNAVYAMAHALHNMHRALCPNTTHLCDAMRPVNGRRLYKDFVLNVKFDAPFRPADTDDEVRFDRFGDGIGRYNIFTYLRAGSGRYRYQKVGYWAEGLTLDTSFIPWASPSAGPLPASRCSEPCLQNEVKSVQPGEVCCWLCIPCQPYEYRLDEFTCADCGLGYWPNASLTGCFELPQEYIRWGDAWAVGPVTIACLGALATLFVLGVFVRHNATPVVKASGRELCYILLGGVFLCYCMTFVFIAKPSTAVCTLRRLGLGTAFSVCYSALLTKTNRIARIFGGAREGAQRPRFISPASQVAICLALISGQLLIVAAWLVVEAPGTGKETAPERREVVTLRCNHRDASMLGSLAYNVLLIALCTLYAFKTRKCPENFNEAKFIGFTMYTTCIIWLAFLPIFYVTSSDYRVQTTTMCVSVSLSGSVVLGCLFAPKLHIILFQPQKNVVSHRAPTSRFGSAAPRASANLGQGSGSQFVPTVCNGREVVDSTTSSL
pKi: −log10 of the molar value.
EXPERIMENTAL READOUT: pKi

Can you share its pKi? I mean this compound: C[C@H](N)C(=O)N[C@@]1(C(=O)O)CC[C@H]2[C@H](C(=O)O)[C@H]21.Cl [TALAGLUMETAD HYDROCHLORIDE]
< 5.00

###

EXPERIMENT SUMMARY: Area under concentration of compound in rats at a dose of 5 mg equiv 1/kg
Assay type: ADME
CONDITION: rat, in vivo
In this section, each of the molecules is paired with its reported AUC.
Dear colleague, please return just the value in ng·h/mL, with no unit written.

| MOLECULE | MEASURED RESULT |
| --- | --- |
| C[C@H](N)C(=O)N[C@@]1(C(=O)O)CC[C@H]2[C@H](C(=O)O)[C@H]21.Cl [TALAGLUMETAD HYDROCHLORIDE] | 0 |
| CC(C)C[C@H](NC(=O)[C@]1(N)CC[C@H]2[C@H](C(=O)O)[C@H]21)C(=O)O | 21300 |
| Cl.N[C@@H](Cc1ccccc1)C(=O)N[C@@]1(C(=O)O)CC[C@H]2[C@H](C(=O)O)[C@H]21 | 194 |

Can you share its AUC? I mean this molecule: `N[C@@]1(C(=O)N[C@@H](Cc2ccccc2)C(=O)O)CC[C@H]2[C@H](C(=O)O)[C@H]21`
11400

Can you share its AUC? I mean this molecule: `CSCC[C@H](NC(=O)[C@]1(N)CC[C@H]2[C@H](C(=O)O)[C@H]21)C(=O)O`
16600

Can you share its AUC? I mean this molecule: `CC(C)C[C@H](N)C(=O)N[C@@]1(C(=O)O)CC[C@H]2[C@H](C(=O)O)[C@H]21.Cl`
0

###

EXPERIMENTAL TARGET: Metabotropic glutamate receptor 3 (Homo sapiens)
Sequence (Q14832 whole entry): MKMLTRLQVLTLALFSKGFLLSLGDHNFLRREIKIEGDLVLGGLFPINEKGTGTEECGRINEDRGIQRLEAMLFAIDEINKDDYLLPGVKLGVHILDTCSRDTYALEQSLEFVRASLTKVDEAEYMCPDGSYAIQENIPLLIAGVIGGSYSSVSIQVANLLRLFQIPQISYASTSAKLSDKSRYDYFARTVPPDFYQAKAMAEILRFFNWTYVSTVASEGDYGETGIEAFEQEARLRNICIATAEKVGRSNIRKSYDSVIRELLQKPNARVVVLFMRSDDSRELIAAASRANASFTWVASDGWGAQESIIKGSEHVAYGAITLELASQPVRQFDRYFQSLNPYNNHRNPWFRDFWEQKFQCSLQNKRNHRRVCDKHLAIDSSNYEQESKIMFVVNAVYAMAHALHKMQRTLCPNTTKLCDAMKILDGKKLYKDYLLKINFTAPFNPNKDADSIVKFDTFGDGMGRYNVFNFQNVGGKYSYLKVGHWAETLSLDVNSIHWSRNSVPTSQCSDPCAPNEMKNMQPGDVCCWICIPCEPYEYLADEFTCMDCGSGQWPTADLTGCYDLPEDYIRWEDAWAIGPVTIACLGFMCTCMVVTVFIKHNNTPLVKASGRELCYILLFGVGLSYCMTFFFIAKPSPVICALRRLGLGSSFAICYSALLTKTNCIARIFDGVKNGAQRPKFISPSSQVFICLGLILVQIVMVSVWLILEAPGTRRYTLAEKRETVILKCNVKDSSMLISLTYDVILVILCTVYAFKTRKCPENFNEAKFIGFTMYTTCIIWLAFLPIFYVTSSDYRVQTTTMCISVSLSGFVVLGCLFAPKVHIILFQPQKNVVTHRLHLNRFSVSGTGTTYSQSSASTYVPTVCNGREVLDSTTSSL
EXPERIMENT SUMMARY: Inhibition of [3H]LY-341,495 binding to recombinant human mGlu3 receptors
EXPERIMENTAL READOUT: Ki (nM)
Dear colleague, please return just the value in nM, with no unit written.

Can you share its Ki? I mean this compound: `N[C@@]1(C(=O)O)CC[C@H]2[C@H](C(=O)O)[C@H]21`
126

###

EXPERIMENT SUMMARY: Plasma concentration of LY-354740 in rats after oral administration of compound at a dose of 5 mg equiv 1/kg at 3 hr
Type: ADME
CONDITION: rat
EXPERIMENTAL READOUT: Plasma concentration
Give the figure together with its unit, number first.

The cases that follow already have their Plasma concentration on record.
| COMPOUND | MEASURED RESULT |
| --- | --- |
| CC(C)C[C@H](NC(=O)[C@]1(NC(=O)[C@H](C)N)CCC2C1[C@H]2C(=O)O)C(=O)O (some centres not stated) | 55 ng/mL |
| CC[C@H](C)[C@H](N)C(=O)N[C@@]1(C(=O)O)CC[C@H]2[C@H](C(=O)O)[C@H]21.Cl | 2032 ng/mL |
| Cl.NCCCC[C@H](N)C(=O)N[C@@]1(C(=O)O)CC[C@H]2[C@H](C(=O)O)[C@H]21 | 246 ng/mL |

Read the next record carefully.
Can you share its Plasma concentration? I mean this compound: `CC(C)C[C@@H](N)C(=O)N[C@@]1(C(=O)O)CC[C@H]2[C@H](C(=O)O)[C@H]21.Cl`
877 ng/mL

###

EXPERIMENT SUMMARY: Plasma concentration of LY-354740 in rats after oral administration of compound at a dose of 5 mg equiv 1/kg at 0.5 hr
Format: ADME
CONDITION: rat
EXPERIMENTAL READOUT: Plasma concentration (ng/mL)
Dear colleague, please return just the value in ng/mL, with no unit written.

The cases that follow already have their Plasma concentration on record.
| CHEMICAL STRING | Plasma concentration [ng/mL] |
| --- | --- |
| N[C@@]1(C(=O)N[C@@H](CO)C(=O)O)CC[C@H]2[C@H](C(=O)O)[C@H]21 | 36 |
| Cl.NCC(=O)N[C@@]1(C(=O)O)CC[C@H]2[C@H](C(=O)O)[C@H]21 | 1707 |
| N[C@@]1(C(=O)N[C@@H](Cc2ccccc2)C(=O)O)CC[C@H]2[C@H](C(=O)O)[C@H]21 | 20 |

Read the next record carefully.
Can you share its Plasma concentration? I mean this compound: `N[C@@]1(C(=O)N[C@@H](Cc2ccc(O)cc2)C(=O)O)CC[C@H]2[C@H](C(=O)O)[C@H]21`
30

###

EXPERIMENT SUMMARY: Plasma concentration of LY-354740 in rats after oral administration of compound at a dose of 5 mg equiv 1/kg at 0.5 hr
Type: ADME
CONDITION: rat
In this section, each of the compounds is paired with its reported Plasma concentration.
Dear colleague, please return just the value in ng/mL, with no unit written.

| CHEMICAL STRING | Plasma concentration [ng/mL] |
| --- | --- |
| Cl.N[C@@H](CO)C(=O)N[C@@]1(C(=O)O)CC[C@H]2[C@H](C(=O)O)[C@H]21 | 1497 |

Can you share its Plasma concentration? I mean this compound: `Cl.N[C@@H](Cc1ccccc1)C(=O)N[C@@]1(C(=O)O)CC[C@H]2[C@H](C(=O)O)[C@H]21`
1710

Can you share its Plasma concentration? I mean this compound: `Cl.NCCCC[C@H](N)C(=O)N[C@@]1(C(=O)O)CC[C@H]2[C@H](C(=O)O)[C@H]21`
74

Can you share its Plasma concentration? I mean this compound: `Cl.O=C(O)[C@H]1[C@@H]2CC[C@@](NC(=O)[C@@H]3CCCN3)(C(=O)O)[C@@H]21`
319

###

Tested on: Caco-2
EXPERIMENT SUMMARY: Inhibition of radiolabeled glycylsarcosine (Gly-Sar) uptake into Caco-2 cells done for 15 min at 37 degree C with compound
Type: functional, cell-based
CONDITION: Homo sapiens, Caco-2, 0.25 h
pIC50: −log10 of the molar value.
Label t for high-side pIC50 (at or above 3) and f for low-side pIC50 (below it).

Would you say `N[C@@]1(C(=O)N[C@@H](Cc2ccccc2)C(=O)O)CC[C@H]2[C@H](C(=O)O)[C@H]21` shows pIC50 at minimum 3?
f

Would you say `C[C@@H](N)C(=O)N[C@@]1(C(=O)O)CC[C@H]2[C@H](C(=O)O)[C@H]21.Cl` shows pIC50 at minimum 3?
f

Would you say `N[C@@]1(C(=O)O)CC[C@H]2[C@H](C(=O)O)[C@H]21` shows pIC50 at minimum 3?
f

Would you say `C[C@H](N)C(=O)N[C@@H](C)C(=O)N[C@@]1(C(=O)O)CC[C@H]2[C@H](C(=O)O)[C@H]21.Cl` shows pIC50 at minimum 3?
f

###

In this section, each of the molecules is paired with its reported Plasma concentration.
EXPERIMENT SUMMARY: Plasma concentration of LY-354740 in rats after oral administration of compound at a dose of 5 mg equiv 1/kg at 1 hr
Type: ADME
CONDITION: rat
Dear colleague, please return just the value in ng/mL, with no unit written.

The cases that follow already have their Plasma concentration on record.
| CHEMICAL STRING | Plasma concentration [ng/mL] |
| --- | --- |
| Cl.NCC(=O)N[C@@]1(C(=O)O)CC[C@H]2[C@H](C(=O)O)[C@H]21 | 1992 |
| N[C@@]1(C(=O)N[C@@H](Cc2ccccc2)C(=O)O)CC[C@H]2[C@H](C(=O)O)[C@H]21 | 45 |
| CSCC[C@H](N)C(=O)N[C@@]1(C(=O)O)CC[C@H]2[C@H](C(=O)O)[C@H]21.Cl | 2107 |

Read the next record carefully.
Can you share its Plasma concentration? I mean this molecule: `N[C@@]1(C(=O)N[C@@H](Cc2ccc(O)cc2)C(=O)O)CC[C@H]2[C@H](C(=O)O)[C@H]21`
44
